Tested on: A498
Experiment: NCI tumour cell line growth inhibition, 48 h
The source made the active and inactive calls. Cut-off read from the data, not from the text of the source: active = GI50 up to about 1.1 µM and inactive = higher.
quantity_name: GI50

Please review the following examples before continuing.
CC1=C(C)C(=O)OC(C(C)(O)C2(O)CC3OC34C3CC(O)C56OC5C=CC(=O)C6(C)C3CCC42C)C1 (centres undefined) : 2.73 µM (inactive)
O=[N+]([O-])c1cc(Cl)ccc1Sc1ccccc1 : > 100 µM (inactive)

Tell me the measured GI50 of C/C=C(/C)C(=O)O[C@H](C[C@@H](C)[C@H]1CC(c2ccoc2)OC1=O)[C@@]1(C)C(=O)CCC2O[C@]21C (some centres undefined) , please.
> 100 µM (inactive)

Please report the recorded GI50 for CC1=NN(c2cccc(Cl)c2)C(=N/c2nc3ccccc3s2)/C1=C\c1ccccc1O .
23.2 µM (inactive)

What does the data say about its GI50? Entry: CC[C@@H]1/C=C/C=C/C[C@H](C)[C@@H](O)[C@@H](C)C(=O)[C@H](C)[C@@H](O)[C@H](C)C(=O)[C@H](C)[C@@H](O)[C@H](C)/C=C/C(=O)O[C@H]2[C@@H](C)[C@@H](CC1)O[C@@]1(CC[C@@H](C)[C@@H](CC(C)O)O1)[C@@H]2C (some centres undefined)
0.0989 µM (active)

Reported GI50, compound NCC#CCNCCCN1CC1 : ____
> 100 µM (inactive)

Which GI50 is listed for CN1N=C(Nc2ccccc2)Sc2c1cnn(-c1ccccc1)c2=O ?
> 100 µM (inactive)

Quick one: GI50 of N#CC1=C(N2CCOCC2)CCC1 ?
> 100 µM (inactive)

I'd like to know its GI50. The compound in question is COCO[C@@H]1C[C@H]2C(O)Nc3ccccc3C(=O)N2C1 (some centres undefined)
> 100 µM (inactive)

====

System: T47D
Test: NCI tumour cell line growth inhibition, 48 h
Active and inactive are the calls of the source. Cut-off read from the data, not from the text of the source: active = GI50 up to about 1.1 µM and inactive = higher.
quantity_name: GI50

CCC(C)SC1SCC2C(=O)N(C)C3(CC3C)C(=O)OCC(NC(=O)c3nc4ccccc4cc3O)C(=O)NC(C)C(=O)N(C)C1C(=O)N(C)C1(CC1C)C(=O)OCC(NC(=O)c1nc3ccccc3cc1O)C(=O)NC(C)C(=O)N2C (centres undefined) : 0.000219 µM (active)

# returns recorded GI50 (system: T47D) for O=c1[nH]c2cc3[nH]c4ncccc4c(=O)c3cc2[nH]1
> 10 µM (inactive)

What GI50 appears in the records for this compound with T47D? O=c1[nH]c2ccccc2n1CCCN1CCC(n2c(=O)[nH]c3cc(Cl)ccc32)CC1
16.3 µM (inactive)

====

Tested on: COLO 205
Assay: NCI tumour cell line growth inhibition, 48 h
The source made the active and inactive calls. Cut-off read from the data, not from the text of the source: active = GI50 up to about 1.1 µM and inactive = higher.
quantity_name: GI50

O=C1C(NCCc2ccc(O)c(O)c2)=CC(=O)c2ncccc21 : 14.7 µM (inactive)

Provide the documented GI50 with COLO 205 as the system for Cc1nc2ccc(Cl)cc2c2c1CCN2c1ccccc1
2.76 µM (inactive)

Recorded GI50 for Cc1ccc(S(=O)(=O)NC(=O)C2(Br)S(=O)(=O)OCCOS2(=O)=O)cc1 with COLO 205, please?
> 100 µM (inactive)

Provide value of GI50 for this record tested with COLO 205: O=C(O)CC(CC(=O)O)n1cccc1
> 100 µM (inactive)

Request: GI50, test system COLO 205, entry O=C(N/N=C(COc1ccc(Cl)cc1)\N=C\c1cccnc1)c1ccncc1
96.8 µM (inactive)

Identify the measured GI50 of CC1(O)CCC2(C#N)CCC1C2O (configuration not stated) for COLO 205.
33.9 µM (inactive)

====

Test system: MDA-N
Test: NCI tumour cell line growth inhibition, 48 h
Activity calls are given as the source filed them. Cut-off read from the data, not from the text of the source: active = GI50 up to about 1.1 µM and inactive = higher.
Classes to choose from: active, inactive

CCOC(=O)CCC(NC(=O)c1ccc(Nc2nc3cc(C(F)(F)F)ccc3nc2C(=O)OCC)cc1)C(=O)OCC (centres undefined) : inactive
C=C(Nc1ccc([N+](=O)[O-])cc1[N+](=O)[O-])c1c/c(=N\NC(N)=S)c2ccccc2o1 : inactive
COC1C(C)OC(OC2CC(C)(O)Cc3cc4c(c(O)c32)C(=O)c2c(O)cc3c(c2C4=O)OC2OC3(C)C(O)C(N(C)C)C2O)C(OC)C1(C)OC (centres undefined) : active

# input for lookup
GET /call?item= Cc1ccc(OCC2OC(n3cnc4c(Cl)nc(Nc5cc(Cl)cc(Cl)c5)nc43)CC2Oc2ccc(C)cc2)cc1 (centres undefined) returns the recorded outcome of this test.
inactive

====

System: UACC-62
Assay: NCI tumour cell line growth inhibition, 48 h
Activity calls are given as the source filed them. No stated cut-off is given here; in the data, active = GI50 up to about 1.1 µM and inactive = higher.
Result category, one only: T for active, F for inactive

These recorded examples may help you get a feel for the data.
CCOC(=O)CCC(NC(=O)c1ccc(Nc2nc3cc(C(F)(F)F)ccc3nc2C(=O)OCC)cc1)C(=O)OCC (stereo not given) : F
CCOC(=O)CCC(NC(=O)c1ccc(Nc2nc3ccc(C(F)(F)F)cc3nc2-c2ccccc2)cc1)C(=O)OCC (stereo not given) : F
CCOC(=O)C(C(=O)OCC)=C1NC2(c3ccccc3Nc3ccc(C)cc32)C(C#N)S1 (stereo not given) : F
Cc1nc2ccc(Cl)cc2c2c1CCN2c1ccccc1 : F
OCCCc1cc(O)c2c(c1)C(CO)C(c1ccc(O)c(O)c1)O2 (stereo not given) : F
COc1cccc(-c2cc(O)c3cc(N4CCOCC4)ccc3n2)c1 : T

Let us examine a further case.
Could you please tell me the result logged for Nc1nccc2c1ncn2[C@H]1C[C@H](O)[C@@H](CO)O1 in this assay?
F

====

Test system: OVCAR-8
Assay: NCI tumour cell line growth inhibition, 48 h
Counter-ions that a name gives are not always drawn. Activity calls are given as the source filed them. Rule as the data show it: active = GI50 up to about 1.1 µM and inactive = higher.
quantity_name: GI50

Use the examples below as a reference point.
CC[N+]1(C)CCC(O)(/C=C/c2ccccc2)C(C(=O)/C=C/c2ccccc2)C1 (stereo not given) : 9.1 µM (inactive)
COc1cc(-c2nnc3n2NC=C(C(=O)O)S3)cc(OC)c1OC : > 100 µM (inactive)
C#Cc1cccc(Nc2ncnc3cc(OCCOC)c(OCCOC)cc23)c1 [ERLOTINIB HYDROCHLORIDE] : 7.23 µM (inactive)
CN1CCc2cc(N)cc3c2C1Cc1ccc2c(c1-3)OCO2 (stereo not given) : 21.6 µM (inactive)

Read the next record carefully.
Data request, read-out GI50, for COc1ccc(C2N3CCCCC3[C@@H]3c4[nH]c5ccccc5c4CCN23)c(OC)c1 (stereo not given in full)
33.3 µM (inactive)

====

Known GI50 of a selection of molecules
System: NCI-H226
Test: NCI tumour cell line growth inhibition, 48 h
Calls of active or inactive are those of the source. No stated cut-off is given here; in the data, active = GI50 up to about 1.1 µM and inactive = higher.

Recorded GI50, per entry:
Cc1ccc(Oc2ccc([N+](=O)[O-])cc2[N+](=O)[O-])c(C)c1 : 44.9 µM (inactive)
O=C1C(Cl)=C(Nc2ccc(OC(F)(F)F)cc2)C(=O)c2c(O)ccc(O)c21 : 1.5 µM (inactive)
Cc1ccc(O)c(/N=N\c2c(O)cc(S(=O)(=O)O)c3ccccc23)c1 : 14.1 µM (inactive)
COC(=O)C1=C(c2ccc(OC)c(OC)c2)OC(c2ccc(OC)c(OC)c2)C1 (stereo unspecified) : 37 µM (inactive)

# GI50 lookup, item O=c1[nH]c2ccccc2n1CCCN1CCC(n2c(=O)[nH]c3cc(Cl)ccc32)CC1
24 µM (inactive)

Would you kindly share the measured GI50 for C=CC[C@H]1[C@H](O[Si](C)(C)C(C)(C)C)C=CC(=O)[C@@H]1CC(=O)N(Cc1ccccc1)Cc1ccccc1 ?
11.7 µM (inactive)

Which GI50 is listed for CC(C(=O)O)C1Nc2ccccc2NC1=O (stereo unspecified) ?
> 100 µM (inactive)

# get_value(readout='GI50', item= COc1cc(-c2nnc3n2NC=C(C(=O)O)S3)cc(OC)c1OC )
> 100 µM (inactive)

State the recorded GI50 for this entry: COc1ccc(/C=N/N=C(\N)NO)cc1OC
28.1 µM (inactive)

What does the data say about its GI50? Entry: NC(=S)NS(=O)(=O)c1ccc(Cl)cc1Cl
> 100 µM (inactive)

So what's the measured GI50 for this one? Oc1cc(O)c2c(c1)O[C@H](c1cc(O)c(O)c(O)c1)[C@@H](O)C2
28.8 µM (inactive)

Given the molecule COC(=O)c1ccccc1/N=C/c1ccc(N(CCC#N)S(=O)(=O)c2ccccc2)cc1 , what is its reported GI50?
> 100 µM (inactive)

Which GI50 reading was recorded for the molecule C=CCOC(=O)N1c2ccc(O[Si](C)(C)C(C)(C)C)cc2[C@@]23O[C@@]24[C@@H]1C#C/C=C\C#C[C@]3(O)C(OC)(OC)C[C@@H]4C ?
13.6 µM (inactive)

Report GI50 for Cc1cc(O)nc(NNC(C#N)c2ccccc2O)n1 (stereo unspecified) please.
31.1 µM (inactive)

====

Test system: T47D
Experiment: NCI tumour cell line growth inhibition, 48 h
Active and inactive are the calls of the source. Cut-off read from the data, not from the text of the source: active = GI50 up to about 1.1 µM and inactive = higher.
Measured GI50, listed per entry for reference.

Below, each entry is followed by its recorded GI50 result.
O=C1c2ccccc2C(=O)c2c(OCCOCCO)cccc21 : 49.4 µM (inactive)
Oc1c(Cl)c(Cl)c(O)c(CCNc2nccs2)c1Cl : 5.48 µM (inactive)
Cc1nc2ccc(Cl)cc2c2c1CCN2c1ccccc1 : 14.5 µM (inactive)
S=P(N1CC1)(N1CC1)N1CC1 : 171 µM (inactive)
CCOC(=O)C(C(=O)OCC)=C1NC2(c3ccccc3Nc3ccc(C)cc32)C(C#N)S1 (stereo unspecified) : 4.39 µM (inactive)

Please report the recorded GI50 for CC1=NN(c2cccc(Cl)c2)C(=N/c2nc3ccccc3s2)/C1=C\c1ccccc1O .
36.4 µM (inactive)

Give the measured GI50 of Cc1nn(C(=O)c2ccncc2)c2c1C(c1ccc(Cl)cc1)SC(=N)N2 (stereo unspecified) .
> 10 µM (inactive)

Given the entry Fc1ccc2c3c([nH]c2c1)CCN(Cc1ccccc1)C3 , report its measured GI50.
14.7 µM (inactive)

Name the reported GI50 value associated with the compound O=C(O)c1c2c(cc3c1CC1(Cc4ccccc4C1=O)C3)CCC2 (stereo unspecified)
32.5 µM (inactive)

Item under review: CC1(C)OC([C@H](O)CO)C([C@H]2NCCS2)O1 (stereo partly specified) . Reported GI50?
> 100 µM (inactive)

Any idea what GI50 was measured for O=C1C(NCCN2CCOCC2)=C(Cl)C(=O)c2ncccc21 ?
1.39 µM (inactive)

Reported GI50 for Cc1cc(O)c(C(C)C)cc1CN1CCCCC1 : what is it?
> 100 µM (inactive)

// lookup GI50 for CN(C)CCSCCO
> 100 µM (inactive)

Can you look up the measured GI50 of C1CNOCCCONCCCNOCCCONC1 for me?
11.3 µM (inactive)

Would you kindly share the measured GI50 for O=C1CC(=O)NC(NN2C(=O)CSC2c2ccc(Cl)c(Cl)c2)=N1 (stereo unspecified) ?
> 100 µM (inactive)

Given the entry O=C(Nc1ccc(Cl)cc1)c1cc(S(=O)(=O)Nc2n[nH]c(=O)n2-c2ccccc2)c(S)cc1Cl , report its measured GI50.
> 100 µM (inactive)
